All figures here come from patent US10519140B2.

# TARGET: mouse ENT-1 transporter (Mus musculus)
# PROCEDURE_TEXT: Adenosine transport activity (ENT1, [3H]-adenosine uptake inhibition)
# ASSAY_SETUP: stable cells expressing mouse ENT-1; [2,8-3H]-adenosine 6 nM, 20 min
MEASUREMENT_LABEL: IC50 (nM)

Cc1ncc(-c2ccc3c(c2)N(c2cncc(N4CC(C)(C)OC4=O)n2)C(=O)C3(C)C)cn1 [Example 56] ... 202
Cc1ncc(-c2ccc3c(c2)N(c2cncc(N4CCCC4=O)n2)C(=O)C3(C)C)cn1 [Example 3] ... 57
COCCNc1nc(N2C(=O)C(C)(C)c3ccc(-c4cnc(C)nc4)cc32)cnc1C [Example 19] ... 110
Cc1ncc(-c2ccc3c(c2)N(c2cc4c(nn2)N(C2CC2)C(=O)C4(C)C)C(=O)C3(C)C)cn1 [Example 53] ... 993

I = Cc1ncc(-c2ccc3c(c2)N(c2cnc4c(c2)NC(=O)CO4)C(=O)C3(C)C)cn1 [Example 38]
II = Cc1ncc(-c2ccc3c(c2)N(c2cnc4c(n2)[nH]c(=O)n4C)C(=O)C3(C)C)cn1 [Example 35]
III = Cc1ncc(-c2ccc3c(c2)N(c2ccc4c(c2F)N(C)C(=O)C4(C)C)C(=O)C3(C)C)cn1 [Example 46]
// query Sort entries by IC50 from minimum to maximum value. # answer = labels listed in requested order
// result I, III, II
(I: 61.4 nM, III: 244 nM, II: 496 nM)

====

# TARGET: mouse ENT-1 transporter (Mus musculus, UniProt Q9JIM1)
# Sequence (Q9JIM1 whole entry): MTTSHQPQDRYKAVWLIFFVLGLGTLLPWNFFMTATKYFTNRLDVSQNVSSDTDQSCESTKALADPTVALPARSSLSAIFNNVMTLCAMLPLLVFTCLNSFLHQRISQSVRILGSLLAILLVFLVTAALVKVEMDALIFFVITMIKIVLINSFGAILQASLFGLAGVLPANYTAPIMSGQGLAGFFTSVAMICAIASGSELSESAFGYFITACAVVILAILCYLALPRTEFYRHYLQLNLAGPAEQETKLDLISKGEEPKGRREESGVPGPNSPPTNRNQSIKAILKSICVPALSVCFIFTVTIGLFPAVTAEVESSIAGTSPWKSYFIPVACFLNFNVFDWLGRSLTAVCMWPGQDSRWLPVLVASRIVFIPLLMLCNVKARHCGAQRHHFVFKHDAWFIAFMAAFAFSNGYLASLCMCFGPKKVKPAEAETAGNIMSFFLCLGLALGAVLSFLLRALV
# PROCEDURE_TEXT: Adenosine transport activity (ENT1, [3H]-adenosine uptake inhibition)
# ASSAY_SETUP: stable cells expressing mouse ENT-1; [2,8-3H]-adenosine 6 nM, 20 min
# Experimental: To measure adenosine transport activity of ENT-1 mammalian cells, stable cells expressing the mouse ENT-1 transporter were plated on day 1 in 96-well culture plates at the density of 60,000 cells/well, in complete DMEM/F12 medium supplemented with glutamax, 10% FBS and 10 μg/ml puromycin. […] The cells were lysed by the addition of scintillation liquid, shaken 3 hours and the radioactivity in the cells was estimated using a microplates scintillation counter (TopCount NXT, Packard).
pIC50: −log10 of the molar value.
MEASUREMENT_LABEL: pIC50

Record excerpt, results attached:
Cc1ncc(-c2ccc3c(c2)N(c2cnc4[nH]c(=O)[nH]c4n2)C(=O)C3(C)C)cn1 ... 6.43
Cc1ncc(-c2ccc3c(c2)N(c2cnc4c(c2)C(C)(C)C(=O)N4C)C(=O)C3(C)C)cn1 ... 7.62
Cc1ncc(-c2ccc3c(c2)N(c2cnc(C)c(N4CCOC4=O)n2)C(=O)C3(C)C)cn1 ... 7.78

a = Cc1ncc(-c2ccc3c(c2)N(c2cncc(N4CCCS4(=O)=O)n2)C(=O)C3(C)C)cn1
b = Cc1ncc(-c2ccc3c(c2)N(c2cncc(N4CCOC4=O)n2)C(=O)C3(C)C)cn1
// query Which entry has a larger number for pIC50, a or b ? Answer by quoting the chosen item's label.
// result b
(b: 7.59, a: 7.22)

A = Cc1ncc(-c2ccc3c(c2)N(c2cccc(N4CCOC4=O)n2)C(=O)C3(C)C)cn1
B = Cc1ncc(-c2ccc3c(c2)N(c2cncc(N4[C@@H]5COC[C@H]4C5)n2)C(=O)C3(C)C)cn1
C = Cc1ncc(-c2ccc3c(c2)N(c2ccc4cnn(C)c4c2)C(=O)C3(C)C)cn1
D = Cc1ncc(-c2ccc3c(c2)N(c2ccc4cc[nH]c4n2)C(=O)C3(C)C)cn1
// query Sequence the entries by pIC50, beginning with the highest number. Returns: the labels listed in the requested order.
// result A, C, B, D
